Form field: IC50 (one value per entry).
Biological target: CyclinE1/CDK2 (Homo sapiens)
Construct: purchased Eurofins, discovery 14-475
Assay: Fluorescence Polarization (FP) competitive binding assay, Cyclin E1/Cdk2;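 further: readings taken after two-hour equilibration at room temperature in HEPES buffer with NaCl, DTT, NP-40 and BSA, IC50 fitted from eight-concentration serial dilution series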
Conditions: 10 nM Cyclin E1/Cdk2, 2 nM FAM probe; average of 2-3 independent experiments; read-out: Cyclin E FP IC50
*1 amine or outer side, *2 acyl side, *3 side chain or, on linkers, in order; H or OH if unused. Where a SMILES comes first, the peptide text is derived from it. Bridges are numbered along the chain shown (N, C = ends). [ ]: non-standard residue; d: D form. The star is where a group is joined. X74 = C[C@@H]1CN(c2ccc(-c3ccc(Cl)cc3C[C@@H](C(=O)[*:2])N(C)[*:1])cc2)C[C@@H](C)O1; X108 = CN([C@@H](Cc1cc(Cl)ccc1-c1ccc(CN2CCOCC2)cc1)C(=O)[*:2])[*:1]; X196 = CN([C@@H](Cc1cc(F)ccc1-c1cnn2ccncc12)C(=O)[*:2])[*:1]; NMehhhLys(Me) = CN([C@@H](CCCCCCCN(C)[*:3])C(=O)[*:2])[*:1]; cBuCO(3,3-F2-1-CF3) = O=C(C1(C(F)(F)F)CC(F)(F)C1)*; Pro(trans-4-F) = O=C(O)[C@@H]1C[C@@H](F)CN1; Gly(cPr) = N[C@H](C(=O)O)C1CC1
measure: IC50 (nM)

molecule | meas-value
CC(C)C[C@@H]1NC(=O)[C@@H](N(C)C(=O)[C@@H](NC(=O)[C@@H]2C[C@@H](F)CN2C(=O)C2(C(F)(F)F)CC(F)(F)C2)C2CC2)CCCCCCCN(C)C(=O)[C@H](Cc2cc(F)ccc2-c2cnn3ccncc23)N(C)C1=O [Example 310] ({cBuCO(3,3-F2-1-CF3)}-[Pro(trans-4-F)][Gly(cPr)][NMehhhLys(Me)]L[X196]; lactam 3-C) | 990
CC(C)C[C@@H]1NC(=O)[C@@H](N(C)C(=O)[C@@H](NC(=O)[C@@H]2C[C@@H](F)CN2C(=O)C2(C(F)(F)F)CC(F)(F)C2)C2CC2)C/C=C\CCCCN(C)C(=O)[C@H](Cc2cc(Cl)ccc2-c2cnn(C)c2)N(C)C1=O | 160
CC(C)C[C@@H]1NC(=O)[C@@H](N(C)C(=O)[C@@H](NC(=O)[C@@H]2C[C@@H](F)CN2C(=O)C2(C(F)(F)F)CC(F)(F)C2)C2CC2)CCCCCCCN(C)C(=O)[C@H](Cc2cc(Cl)ccc2-c2ccc(N3C[C@@H](C)O[C@H](C)C3)cc2)N(C)C1=O [Example 389] ({cBuCO(3,3-F2-1-CF3)}-[Pro(trans-4-F)][Gly(cPr)][NMehhhLys(Me)]L[X74]; lactam 3-C) | 790
CC(C)C[C@@H]1NC(=O)[C@@H](N(C)C(=O)[C@@H](NC(=O)[C@@H]2C[C@@H](F)CN2C(=O)C2(C(F)(F)F)CC(F)(F)C2)C2CC2)CC=CCCCCNC(=O)[C@H](Cc2cc(Cl)ccc2C2=CCN(C(=O)C(C)(C)C)CC2)N(C)C1=O | 5730
CC(C)C[C@@H]1NC(=O)[C@@H](N(C)C(=O)[C@@H](NC(=O)[C@@H]2C[C@@H](F)CN2C(=O)C2(C(F)(F)F)CC(F)(F)C2)C2CC2)C/C=C\CCCCN(C)C(=O)[C@H](Cc2cc(Cl)ccc2-c2cnn(S(C)(=O)=O)c2)N(C)C1=O | 440
CC(C)C[C@@H]1NC(=O)[C@@H](N(C)C(=O)[C@@H](NC(=O)[C@@H]2C[C@@H](F)CN2C(=O)C2(C(F)(F)F)CC(F)(F)C2)C2CC2)CCCCCCCN(C)C(=O)[C@H](Cc2cc(Cl)ccc2-c2ccc(CN3CCOCC3)cc2)N(C)C1=O [Example 359] ({cBuCO(3,3-F2-1-CF3)}-[Pro(trans-4-F)][Gly(cPr)][NMehhhLys(Me)]L[X108]; lactam 3-C) | 680
[2H]C([2H])([2H])N(C(=O)[C@@H](NC(=O)[C@@H]1C[C@@H](F)CN1C(=O)C1(C(F)(F)F)CC(F)(F)C1)C1CC1)[C@H]1CCCCCCCN(C)C(=O)[C@H](Cc2cc(Cl)ccc2-c2ccc(N3CCN(C)CC3)cc2)N(C)C(=O)[C@H](CC(C)C)NC1=O | 420
